PROCEDURE TEXT: Pharmacokinetic study in rats after oral administration of OS extract (UHPLC-QqQ-MS/MS of plasma)
Assay type: in vivo, rat
SETTINGS: male, SD, rat, in vivo, po, 3 g/kg
MEASURED PARAMETER: AUC(0-t) (ng·h/mL)

{"CHEMICAL STRUCTURE": "O=c1cc(-c2ccccc2)oc2cc(O)cc(O)c12", "UNIT OF MEASURE": "ng·h/mL", "VALUE": 550}
{"CHEMICAL STRUCTURE": "COc1c(O)cc2oc(-c3ccccc3)cc(=O)c2c1O", "UNIT OF MEASURE": "ng·h/mL", "VALUE": 2840}

###

Measured Measured, Three freeze-thaw cycles of individual entries
PROCEDURE TEXT: Stability of the analytes in rat plasma samples under storage conditions
Type: physicochemical
SETTINGS: spiked concentration 40 ng/mL, n = 6

{"COMPOUND": "O=c1cc(-c2ccccc2)oc2cc(O[C@@H]3O[C@H](CO)[C@@H](O)[C@H](O)[C@H]3O)c(O)c(O)c12", "Measured, Three freeze-thaw cycles / ng/mL": 39.17}
{"COMPOUND": "O=C(O)[C@H]1O[C@@H](Oc2cc(O)c3c(=O)cc(-c4ccccc4)oc3c2)[C@H](O)[C@@H](O)[C@@H]1O [Chrysin-7-O-β-D-glucuronide, chrysin-7-O-β-D-glucuronide]", "Measured, Three freeze-thaw cycles / ng/mL": 43.49}
{"COMPOUND": "O=c1cc(-c2ccccc2)oc2cc(O[C@@H]3O[C@H](CO[C@@H]4O[C@H](CO)[C@@H](O)[C@H](O)[C@H]4O)[C@@H](O)[C@H](O)[C@H]3O)c(O)c(O)c12", "Measured, Three freeze-thaw cycles / ng/mL": 38.40}
{"COMPOUND": "O=c1cc(-c2ccccc2)oc2cc(O)c(O)c(O)c12", "Measured, Three freeze-thaw cycles / ng/mL": 38.12}

###

PROCEDURE TEXT: Stability of the analytes in rat plasma samples under storage conditions
Type: physicochemical
SETTINGS: spiked concentration 6400 ng/mL, n = 6

{"COMPOUND": "O=c1cc(-c2ccccc2)oc2cc(O[C@@H]3O[C@H](CO[C@@H]4O[C@H](CO)[C@@H](O)[C@H](O)[C@H]4O)[C@@H](O)[C@H](O)[C@H]3O)c(O)c(O)c12 [Oroxin B, oroxin B]", "Measured, -80°C for 7 days / ng/mL": 5937.71}
{"COMPOUND": "O=C(O)[C@H]1O[C@@H](Oc2cc(O)c3c(=O)cc(-c4ccccc4)oc3c2)[C@H](O)[C@@H](O)[C@@H]1O [Chrysin-7-O-β-D-glucuronide, chrysin-7-O-β-D-glucuronide]", "Measured, -80°C for 7 days / ng/mL": 6210.06}
{"COMPOUND": "O=c1cc(-c2ccccc2)oc2cc(O[C@@H]3O[C@H](CO)[C@@H](O)[C@H](O)[C@H]3O)c(O)c(O)c12 [Oroxin A, oroxin A]", "Measured, -80°C for 7 days / ng/mL": 6200.94}
{"COMPOUND": "O=c1cc(-c2ccccc2)oc2cc(O)c(O)c(O)c12 [Baicalein, baicalein]", "Measured, -80°C for 7 days / ng/mL": 5967.02}

###

PROCEDURE TEXT: Stability of the analytes in rat plasma samples under storage conditions
Assay type: physicochemical
SETTINGS: spiked concentration 2 ng/mL, n = 6

{"COMPOUND": "COc1c(O)cc2oc(-c3ccc(O)cc3)cc(=O)c2c1O", "Measured, Autosampler for 12 h / ng/mL": 1.79}
{"COMPOUND": "COc1c(O[C@@H]2O[C@H](C(=O)O)[C@@H](O)[C@H](O)[C@H]2O)cc(O)c2c(=O)cc(-c3ccccc3)oc12 [Wogonoside, wogonoside]", "Measured, Autosampler for 12 h / ng/mL": 2.07}
{"COMPOUND": "O=c1cc(-c2ccc(O)cc2)oc2cc(O)c(O)c(O)c12", "Measured, Autosampler for 12 h / ng/mL": 2.05}
{"COMPOUND": "COc1ccc(-c2cc(=O)c3c(O)cc(O)cc3o2)cc1", "Measured, Autosampler for 12 h / ng/mL": 1.78}
